Below, each entry is listed with its recorded Binding of Control serum LUMC to looped peptides.
- System: control sera (pooled serum of ten healthy LUMC hospital workers; commercial negative donor pooled serum from the Dutch bloodbank)
- Type: binding, human
- Set-up: unit not given here
QUANTITY_MEASURED: Binding of Control serum LUMC to looped peptides

| QUERY_SEQUENCE | OBSERVED_MEASUREMENT |
| --- | --- |
| QECVRGTTVLLKEPC | 0.8 |
| PNVTINCQDPAGGAL | 0.4 |
| TDTGIENATFFIFNK | 0.6 |
| DGISTPKLKEDYQIG | 0.3 |
| TLVLKMLHSSSLTSL | 0.7 |
| FVCWHTHNYDYCIPY | 0.6 |
| YSPLFLIVAALVFLI | 0.7 |
| GGALIARCWYLHEGH | 0.6 |
| PPNVQIHTIDGSSGV | 0.7 |
| VLKMLHSSSLTSLLK | 0.3 |
| ITAQPVKIDNASPAS | 0.5 |
| IPYNSVTDTIVVTEG | 0.4 |
| LYALIYFLQCINACR | 0.6 |
| PLLYDANYFVCWHTH | 0.6 |
| GSRGGSQASSRSSSR | 0.7 |
| TMVQTCTPNVTINCQ | 0.7 |
| NFGDQDLIRQGTDYK | 0.4 |
| EGIVWVATEGALNTP | 0.6 |
| IHTIDGSSGVANPAM | 0.4 |
| YVYSRVKNLNSSEGV | 0.8 |
| QCINACRIIMRCWLC | 0.7 |
| VYHITVSQIQLSLLK | 0.4 |
| LVKDPPNVQIHTIDG | 0.7 |
| STAWLCALGKVLPFH | 0.6 |
| QGVPINTNSGPDDQI | 0.8 |
| LTQHGKEELRFPRGQ | 0.6 |
| FGDQDLIRQGTDYKH | 0.7 |
| VTAFQHQNSKKTTKL | 0.5 |
| LLYDANYFVCWHTHN | 0.5 |
| YMAISPKFTTSLSLH | 0.7 |
| TTLPKGFYAEGSRGG | 0.5 |
| LHKLLQTLVLKMLHS | 0.7 |
| LPYGANKEGIVWVAT | 0.6 |
| SKNPLLYDANYFVCW | 0.6 |
| MTTVYHITVSQIQLS | 0.5 |
| KPRQKRTATKQYNVT | 0.4 |
| SITAQPVKIDNASPA | 0.4 |
| QLRARSVSPKLFIRQ | 0.8 |
| LCALGKVLPFHRWHT | 0.6 |
| KIDNASPASTVHATA | 0.7 |
| LGKVLPFHRWHTMVQ | 0.4 |
| CWKCKSKNPLLYDAN | 0.7 |
| PLQASLPFGWLVIGV | 0.5 |
| NCQDPAGGALIARCW | 0.6 |
| AFLAVFQSATKIIAL | 0.6 |
| GTYEGNSPFHPLADN | 0.7 |
| AFGRRGPEQTQGNFG | 0.3 |
| MKIILFLTLIVFTSC | 0.7 |
| PAMDPIYDEPTTTTS | 0.4 |
| ASLPYGANKEGIVWV | 0.8 |
| NACRIIMRCWLCWKC | 0.6 |
| FQFICNLLLLFVTIY | 0.3 |
| SDNGPQSNQRSAPRI | 0.5 |
| GRRGPEQTQGNFGDQ | 0.6 |
| IVNVSLVKPTVYVYS | 0.9 |
| SEDRHSGVKDYVVVH | 0.5 |
| SWFTALTQHGKEELR | 0.3 |
| GNTYSTAWLCALGKV | 0.6 |
| PRWYFYYLGTGPEAS | 0.7 |
| KHKKVSTNLCTHSFR | 0.7 |
| QIQLSLLKVTAFQHQ | 0.6 |
| GIENATFFIFNKLVK | 0.5 |
| GTTLPKGFYAEGSRG | 0.6 |
| PKLFIRQEEVQQELY | 0.7 |
| TPKDHIGTRNPNNNA | 0.6 |
| VPINTNSGPDDQIGY | 0.7 |
| AGMEAQFLYLYALIY | 0.6 |
| LGSITAQPVKIDNAS | 0.4 |
